Test system: HCT116 cells
assay.name: ATPlite cell viability after drug treatment, HCT116 cells in cell-line or organoid culture media
Format: cell-based
cond: HCT116 in Ex1; 3rd; read-out: IC50 (μM) 3rd
measured.endpoint: IC50 (µM)
Answer in µM, number only, no unit symbol.

# IC50 (molecule: O=C1[O][Pt]2([NH][C@@H]3CCCC[C@H]3[NH]2)[O]C1=O ) is 167

---

System: HCT116 cells
assay.name: ATPlite cell viability after drug treatment, HCT116 cells in cell-line or organoid culture media
Format: cell-based
cond: HCT116 in Ex2-4; average; read-out: IC50 (μM) Average
measured.endpoint: IC50 (µM)
Your answer is read as µM, so omit the unit and give the number.

IC50 reported for this molecule O=C1[O][Pt]2([NH][C@@H]3CCCC[C@H]3[NH]2)[O]C1=O : 23.8
